- system under test: recombinant human HDAC1 (Homo sapiens (Human), UniProt Q13547)
- Sequence (Q13547 whole entry): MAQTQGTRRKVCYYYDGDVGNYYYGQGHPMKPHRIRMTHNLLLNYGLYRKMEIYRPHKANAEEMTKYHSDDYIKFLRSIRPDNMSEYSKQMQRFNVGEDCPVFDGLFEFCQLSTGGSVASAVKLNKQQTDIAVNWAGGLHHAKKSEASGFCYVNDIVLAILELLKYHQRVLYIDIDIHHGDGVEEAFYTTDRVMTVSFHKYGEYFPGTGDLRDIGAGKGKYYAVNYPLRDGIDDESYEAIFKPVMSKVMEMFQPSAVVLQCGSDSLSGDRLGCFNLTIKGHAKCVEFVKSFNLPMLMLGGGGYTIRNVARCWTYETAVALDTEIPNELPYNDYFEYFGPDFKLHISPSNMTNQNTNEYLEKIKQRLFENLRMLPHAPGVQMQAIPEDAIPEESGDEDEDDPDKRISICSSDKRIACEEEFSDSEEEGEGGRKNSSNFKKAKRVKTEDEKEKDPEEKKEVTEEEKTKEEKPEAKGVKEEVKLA
- experimental details: Enzymatic screening, HDAC1 inhibition (fluorogenic FdL_G substrate)
- Format: biochemical
pIC50: −log10 of the molar value.
measure name: pIC50

compound: Fc1cc(-c2nnc(C(F)F)o2)c(F)cc1Cn1cnc(-c2ccc(NC3=NCCN3)cc2)c1
obs value: < 3.00
--
compound: NCc1ccc(-c2nc(Cc3ccc(-c4nnc(C(F)F)o4)cc3)no2)cc1
obs value: < 3.70
--
compound: C[C@@H](c1ccc(-c2nnc(C(F)F)o2)cn1)n1cc(-c2ccc(N)nc2)nn1
obs value: < 3.70
--
compound: O=C(Nc1cccc(-c2cn(Cc3cc(F)c(-c4nnc(C(F)F)o4)cc3F)nn2)c1)N1CCOCC1
obs value: < 3.00
--
compound: CS(=O)(=O)NCCC(c1ccc(-c2nnc(C(F)F)o2)cn1)n1cc(-c2ccc(N)nc2)nn1 (centres unmarked)
obs value: < 3.70
--
compound: Cn1c(N)nc2cc(-c3cn(Cc4ccc(-c5nnc(C(F)F)o5)cn4)nn3)ccc21
obs value: < 3.70
--
compound: NC(=O)c1ccc(-c2nnn(Cc3ccc(-c4nnc(C(F)F)o4)cc3)n2)cc1
obs value: < 3.70
--
compound: CC(C)(C)OC(=O)N1CCC2(C1)C(=O)Nc1ccc(-c3cn(Cc4ccc(-c5nnc(C(F)F)o5)cc4)nn3)cc12 (centres unmarked)
obs value: < 3.70

----------
- system under test: recombinant human HDAC6 (Homo sapiens (Human))
- Sequence (Q9UBN7 whole entry): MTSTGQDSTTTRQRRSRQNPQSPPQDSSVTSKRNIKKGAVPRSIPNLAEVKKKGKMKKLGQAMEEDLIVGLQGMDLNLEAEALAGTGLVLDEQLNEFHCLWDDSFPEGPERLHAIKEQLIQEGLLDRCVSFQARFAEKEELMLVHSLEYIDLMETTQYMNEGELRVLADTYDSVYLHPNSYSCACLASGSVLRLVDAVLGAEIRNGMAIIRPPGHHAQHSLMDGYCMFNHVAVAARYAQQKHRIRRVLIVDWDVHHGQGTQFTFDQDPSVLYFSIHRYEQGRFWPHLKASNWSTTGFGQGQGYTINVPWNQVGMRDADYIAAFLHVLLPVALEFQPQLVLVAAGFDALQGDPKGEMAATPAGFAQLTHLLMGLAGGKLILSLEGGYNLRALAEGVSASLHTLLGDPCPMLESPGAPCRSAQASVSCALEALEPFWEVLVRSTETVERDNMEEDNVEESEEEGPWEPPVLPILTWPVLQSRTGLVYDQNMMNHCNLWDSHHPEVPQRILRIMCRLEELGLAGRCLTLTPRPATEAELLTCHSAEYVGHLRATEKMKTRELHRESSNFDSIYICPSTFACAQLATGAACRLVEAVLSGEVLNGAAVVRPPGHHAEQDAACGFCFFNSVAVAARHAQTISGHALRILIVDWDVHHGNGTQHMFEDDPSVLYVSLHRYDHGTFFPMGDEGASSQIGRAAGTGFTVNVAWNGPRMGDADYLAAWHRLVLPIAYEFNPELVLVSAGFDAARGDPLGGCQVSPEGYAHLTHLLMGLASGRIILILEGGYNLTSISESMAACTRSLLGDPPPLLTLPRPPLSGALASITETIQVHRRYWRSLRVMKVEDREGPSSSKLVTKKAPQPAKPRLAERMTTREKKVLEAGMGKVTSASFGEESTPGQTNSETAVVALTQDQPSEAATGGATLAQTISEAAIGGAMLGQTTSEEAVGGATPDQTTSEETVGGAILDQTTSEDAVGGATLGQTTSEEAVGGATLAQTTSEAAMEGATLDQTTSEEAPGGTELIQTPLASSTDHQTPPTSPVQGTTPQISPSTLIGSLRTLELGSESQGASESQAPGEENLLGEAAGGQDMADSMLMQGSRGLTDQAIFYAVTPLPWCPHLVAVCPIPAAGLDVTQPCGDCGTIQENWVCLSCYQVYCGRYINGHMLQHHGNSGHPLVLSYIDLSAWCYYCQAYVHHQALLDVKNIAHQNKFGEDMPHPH
- experimental details: Enzymatic screening, HDAC6 inhibition (fluorogenic FdL_G substrate)
Use IC50 to assign classes; range list: 1 (below 0.03 µM), 2 (0.03 µM to below 0.05 µM), 3 (0.05 µM or more)

compound: O=c1[nH]c2cc(-c3nnn(Cc4ccc(-c5nnc(C(F)F)o5)cc4)n3)ccc2o1 [compound 225]
system under test: recombinant human HDAC6 (Homo sapiens (Human))
class name: 3

compound: Cn1c(N)nc2cc(-c3cn(Cc4ccc(-c5nnc(C(F)F)o5)cc4)nn3)ccc21 [Compd. 23]
system under test: recombinant human HDAC6 (Homo sapiens (Human))
class name: 1

compound: Nc1nc2ccc(-c3cn(Cc4ccc(-c5nnc(C(F)F)o5)cn4)nn3)cc2s1 [Compd. 1]
system under test: recombinant human HDAC6 (Homo sapiens (Human))
class name: 1

compound: CCC[C@@H](c1ccc(-c2nnc(C(F)F)o2)cc1)n1cc(-c2cccc(NC(=O)N3CCOCC3)c2)nn1 (stereo in doubt) [compound 205]
system under test: recombinant human HDAC6 (Homo sapiens (Human))
class name: 3

compound: FC(F)c1nnc(-c2ccc(Cn3cc(-c4cccs4)nn3)nc2)o1 [compound 85]
system under test: recombinant human HDAC6 (Homo sapiens (Human))
class name: 2

compound: O=C(Nc1cccc(-c2nc(Cc3c(F)cc(-c4nnc(C(F)F)o4)cc3F)no2)c1)N1CCOCC1 [Compd. 145]
system under test: recombinant human HDAC6 (Homo sapiens (Human))
class name: 3

compound: O=C1Nc2ccc(-c3cn(Cc4ccc(-c5nnc(C(F)F)o5)cc4)nn3)cc2NC12CCNCC2 [compound 271]
system under test: recombinant human HDAC6 (Homo sapiens (Human))
class name: 2

compound: Fc1cc(-c2nnc(C(F)F)o2)ccc1Cn1cnc(-c2ccc(NC3=NCCN3)cc2)c1 [compound 357]
system under test: recombinant human HDAC6 (Homo sapiens (Human))
class name: 1

compound: O=C(Nc1cc(-c2nnn(Cc3ccc(-c4nnc(C(F)F)o4)cn3)n2)ccc1O)N1CCOCC1 [compound 2]
system under test: recombinant human HDAC6 (Homo sapiens (Human))
class name: 1

compound: CC(c1ccc(-c2nnc(C(F)F)o2)c(F)c1)n1cc(-c2ccc(N)nc2)nn1 (stereo not shown) [compound 186]
system under test: recombinant human HDAC6 (Homo sapiens (Human))
class name: 3

compound: [2H]C([2H])(c1cc(F)c(-c2nnc(C(F)F)o2)cc1F)n1cc(-c2ccc(N)nc2)nn1 [compound 381]
system under test: recombinant human HDAC6 (Homo sapiens (Human))
class name: 1

compound: Nc1nc2ccc(-c3cn(Cc4ccc(-c5nnc(C(F)F)o5)cn4)nn3)cc2[nH]1 [Compd. 30]
system under test: recombinant human HDAC6 (Homo sapiens (Human))
class name: 1

compound: Fc1cc(-c2nnc(C(F)F)o2)c(F)cc1Cn1nnc(-c2ccc3cnccc3c2)n1 [compound 428]
system under test: recombinant human HDAC6 (Homo sapiens (Human))
class name: 3

compound: CC(c1ccc(-c2nnc(C(F)F)o2)cc1)n1cc(-c2ccc(N)nc2)nn1 (stereo not shown) [Compd. 117]
system under test: recombinant human HDAC6 (Homo sapiens (Human))
class name: 2
